Test system: Plasmodium falciparum
experiment: GSK_TCMDC: Inhibition of Plasmodium falciparum 3D7 in whole red blood cells, using parasite LDH activity as an index of growth. Test compounds present at 2uM
Type: functional
property.measured: Inhibition

[[record]]
molecule = "Cc1cccc2nc(-c3ccc(-c4ccc(CNCC5CCCO5)cc4)cc3)[nH]c12.O=C(O)C(F)(F)F (stereo not drawn)"
measured = "100%"

[[record]]
molecule = "CC(C)Cn1c(Sc2ccc(C#N)c([N+](=O)[O-])c2)nnc1-c1ccc(N(C)C)cc1"
measured = "98%"

[[record]]
molecule = "CN1CCC[C@@H](Oc2cc3c(cc2Br)CCN3C(=O)Nc2ccc(-c3ccncc3)c(Cl)c2)C1"
measured = "99%"

[[record]]
molecule = "Cc1cc(CN2C(=O)C(c3ccccc3)(c3ccccc3)N=C2N)c(C(F)(F)F)o1"
measured = "97%"

[[record]]
molecule = "COc1ccc2c(N/N=C/c3cccc([N+](=O)[O-])c3)cc(C)nc2c1"
measured = "100%"

[[record]]
molecule = "C=CCNS(=O)(=O)c1ccc(NC(=O)C(C)Oc2ccc([N+](=O)[O-])cc2)cc1 (stereo not drawn)"
measured = "100%"

[[record]]
molecule = "CC(C)C[C@@H](C(=O)Nc1ccc(Cc2ccc(NC(=O)[C@H](CC(C)C)N(C)C(=O)OC(C)(C)C)cc2)cc1)N(C)C(=O)OC(C)(C)C"
measured = "92%"


Here is the next item to consider.
Incoming: So what does the record say about Inhibition for CCc1ccc(N2C(=O)C3C(Cc4ccc(OC(C)(C)C)cc4)NC4(C(=O)N(Cc5ccccc5)c5ccc(F)cc54)C3C2=O)cc1 (stereo not drawn) ?
Outgoing: 96%

###

Test system: Plasmodium falciparum
experiment: GSK_TCMDC: Inhibition of Plasmodium falciparum Dd2 in whole red blood cells, using parasite LDH activity as an index of growth. Test compounds present at 2uM
Format: functional
Values of Inhibition strictly less than 50% map to yes (1), and values of at least 50% map to no (0).

[[record]]
compound = "CN(C)CC(O)C(O)(c1ccccc1)c1ccc(F)cc1.Cl (centres undefined)"
label_value = "yes (1)"

[[record]]
compound = "CCOc1cc(-c2nnc3[nH]c(=O)n(C)c(=O)c3n2)ccc1OC(C)C"
label_value = "no (0)"

[[record]]
compound = "CC(C)(C)c1ccc(CNC(=O)/C=C/c2ccc(CNC3CCNCC3)cc2)cc1"
label_value = "yes (1)"

[[record]]
compound = "O=C(O)C(F)(F)F.O=[N+]([O-])c1cccc(CNC2CCN(Cc3ccc(-c4ccccc4)cc3)CC2)c1"
label_value = "no (0)"

[[record]]
compound = "Cc1cc(N(C)CCCN(C)C)nc(Nc2ccc(Cl)cc2)n1"
label_value = "no (0)"


Incoming: Regarding `Cc1cc(-c2c[nH]c3ncc(-c4cccc5ncccc45)cc23)ccc1C(=O)O.O=C(O)C(F)(F)F` , kindly confirm whether its Inhibition is beneath 50%.
Outgoing: no (0)

Incoming: Regarding `CN(C)CCOc1cc(NC(=O)Nc2ccc(-c3ccncc3)c(Cl)c2)ccc1I` , kindly confirm whether its Inhibition is beneath 50%.
Outgoing: no (0)

Incoming: Regarding `CC(=O)OCCN1C(=O)c2ccc3c4c(ccc(c24)C1=O)C(=O)N(CCOC(C)=O)C3=O` , kindly confirm whether its Inhibition is beneath 50%.
Outgoing: yes (1)
